# assay_remarks: Pharmacokinetic evaluation in C57BL/6 mice, brain tissues and plasma
# Type: in vivo
# setup_conditions: male, C57BL/6, mouse, brain/plasma, oral, 5 mg/kg, read-out: drug concentration ratio between brain tissues and plasma (B/P)
recorded_metric: Kp
Numbers only.

1. COc1nc(N2CC3(CCC3)C2)ccc1Nc1ncc(Cl)c(Nc2ccccc2P(C)(C)=O)n1 [Embodiment 14] = 0.96
2. COc1nc(N2CC3(CCOC3)C2)ccc1Nc1ncc(Cl)c(Nc2ccccc2P(C)(C)=O)n1 [Embodiment 9] = 0.2

Qu. Quick one: Kp for COc1nc(N2CC3(COC3)C2)ccc1Nc1ncc(Cl)c(Nc2ccccc2P(C)(C)=O)n1 [Embodiment 12] ?
Ans. 0.14

Where these numbers come from: patent US11046720B2
